System: Proteus vulgaris
Assay Explanation: MIC in nutrient agar, Proteus vulgaris
Type: cell-based, Proteus vulgaris (ATCC 881)
Conditions Used: Pv, pH 6.8, 30° C., 48 hours, read-out: Minimum Inhibitory Concentration (MIC)
// reported MIC for each item listed

>  <Item Smiles>
N#CSCOc1nsnc1OCSC#N

>  <MIC>
25 µg/mL

$$$$

Okay, next one:
What measured MIC goes with N#CSCOc1nsnc1Cl ?
< 10 µg/mL

---

System: Pseudomonas aeruginosa (PRD-10)
Assay Explanation: MIC in nutrient agar, Pseudomonas aeruginosa (PRD-10)
Type: cell-based, Pseudomonas aeruginosa (ATCC 15442)
Conditions Used: PRD, pH 6.8, 30° C., 48 hours, read-out: Minimum Inhibitory Concentration (MIC)
Outcome Measure: MIC

Below, 5 compounds whose answers are already recorded.
>  <Compound>
N#CSCCSc1nsnc1SCCSC#N [Example 5]

>  <Assay Target>
Pseudomonas aeruginosa (PRD-10)

>  <Obs Value>
> 500 µg/mL

$$$$
>  <Compound>
N#CSc1nsnc1SC#N [Example 2, Bis(thiocyanato)-1,2,5-thiadiazole]

>  <Assay Target>
Pseudomonas aeruginosa (PRD-10)

>  <Obs Value>
25 µg/mL

$$$$
>  <Compound>
N#CSCOc1nsnc1Cl [Example 6]

>  <Assay Target>
Pseudomonas aeruginosa (PRD-10)

>  <Obs Value>
100 µg/mL

$$$$
>  <Compound>
N#CSCOc1nsnc1OCSC#N [Example 8]

>  <Assay Target>
Pseudomonas aeruginosa (PRD-10)

>  <Obs Value>
500 µg/mL

$$$$
>  <Compound>
N#CSCSc1nsnc1Cl [Example 3]

>  <Assay Target>
Pseudomonas aeruginosa (PRD-10)

>  <Obs Value>
< 10 µg/mL

$$$$

If you can, please state the reported MIC value of COc1nsnc1OCSC#N [Example 7] .
25 µg/mL

Reported MIC for N#CSCSc1nsnc1SCSC#N [Example 4] : what is it?
25 µg/mL

FYI, the data here is from patent US5491155A.
